FYI, the data here is from ChEMBL document CHEMBL1140921.

# Experiment Notes: Inhibition of 6-His tagged recombinant c-Myc353-437 gene binding to Max(S) protein assessed as disruption of heterodimer formation by circular dichroism assay
pIC50: −log10 of the molar value.
Measure Name: pIC50

Examples with answers:
| Smiles Text | Numeric Readout |
| --- | --- |
| CC(C)c1ccc(/C=C2\SC(=S)NC2=O)cc1 | 4.42 |
| O=C1NC(=S)S/C1=C\c1ccc(Cl)cc1 | 4.39 |
| CCCN1C(=O)/C(=C/c2ccc(CC)cc2)SC1=S | 5.34 |

A. CCCCOC(=O)CCN1C(=O)/C(=C/c2ccc(CC)cc2)SC1=S
B. O=C1NC(=S)S/C1=C\c1ccc(O)c(O)c1
C. CCc1ccc(/C=C2\SC(=S)NC2=O)cc1
hey, can you rank those molecules up there by pIC50? biggest number first please # respond with the labels, arranged in the requested order
A, B, C
(A: 5.00, B: 4.64, C: 4.31)
